- Study Target: glucocorticoid receptor (Homo sapiens (Human))
- Sequence (P04150 whole entry): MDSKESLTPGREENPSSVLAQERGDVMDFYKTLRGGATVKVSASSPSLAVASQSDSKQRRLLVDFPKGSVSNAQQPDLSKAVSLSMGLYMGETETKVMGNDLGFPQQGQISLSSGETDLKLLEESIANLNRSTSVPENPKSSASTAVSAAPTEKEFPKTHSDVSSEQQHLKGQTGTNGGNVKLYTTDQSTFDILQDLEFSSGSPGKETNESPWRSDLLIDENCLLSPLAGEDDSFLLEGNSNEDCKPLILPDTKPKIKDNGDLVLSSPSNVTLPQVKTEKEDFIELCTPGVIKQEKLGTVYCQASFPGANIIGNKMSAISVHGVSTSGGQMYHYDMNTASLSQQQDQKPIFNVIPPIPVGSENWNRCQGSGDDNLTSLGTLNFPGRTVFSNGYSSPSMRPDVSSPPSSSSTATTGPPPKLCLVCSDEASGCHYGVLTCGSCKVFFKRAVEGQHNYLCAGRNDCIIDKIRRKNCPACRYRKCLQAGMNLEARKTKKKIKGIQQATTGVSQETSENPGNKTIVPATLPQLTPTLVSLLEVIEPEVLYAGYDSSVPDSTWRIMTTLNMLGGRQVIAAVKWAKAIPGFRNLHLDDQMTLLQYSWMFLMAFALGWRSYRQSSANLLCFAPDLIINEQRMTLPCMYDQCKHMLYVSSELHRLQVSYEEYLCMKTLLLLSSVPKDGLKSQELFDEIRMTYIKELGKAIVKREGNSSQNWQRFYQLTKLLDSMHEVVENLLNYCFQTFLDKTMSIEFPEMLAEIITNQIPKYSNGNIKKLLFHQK
- Experiment Summary: HepG2 TAT assay: inhibition of dexamethasone-induced tyrosine aminotransferase (TAT) activity
- Recorded Conditions: HepG2 cells, challenge of 100 nM dexamethasone, 18-24 hr; IC50 converted to Ki by Cheng and Prusoff equation
Measured Quantity: Ki (nM)
Numbers only here, please. The scale is nM.

For orientation, consider the following solved cases.
> print(dat)
                                   compound  numeric.result
1  CNS(=O)(=O)N1C[C@@H]2[C@@H](c3ccccc3)[C@]2(c2cc3cnn(-c4ccc(F)cc4)c3cc2C)C1 [Example 106]              55
2  Cc1nc(C(=O)N2C[C@@H]3[C@@H](c4ccccc4)[C@]3(c3cc4cnn(-c5ccc(F)cc5)c4cc3C)C2)cs1 (single isomer, unassigned) [Example 153]              38
3  COC1(c2ccccc2)CC2CN(S(=O)(=O)c3cnn(C)c3)CC2(c2cc3cnn(-c4ccc(F)cc4)c3cc2C)C1 (stereo not drawn) [Example 11]              33
4  Cc1cc2c(cnn2-c2ccc(F)cc2)cc1[C@@]12CN(C(=O)c3ccccc3N3CCOCC3)C[C@@H]1[C@H]2c1ccccc1 (stereo in doubt) [Example 174]              39
5  Cc1cc2c(cnn2-c2ccc(F)cc2)cc1[C@@]12CN(S(=O)(=O)C3COC3)C[C@@H]1[C@H]2c1ccccc1 (single isomer, unassigned) [Example 140]              65

Form field - read-out: Ki; system: glucocorticoid receptor (Homo sapiens (Human)); submitted item: Cc1cc2c(cnn2-c2ccc(F)cc2)cc1[C@@]12CN(C(=O)c3ccccc3C#N)C[C@@H]1[C@H]2c1ccccc1 (single isomer, unassigned) [Example 130]
5.7

The reported measurements were obtained from patent US20250115583A1.
